- TARGET ENTITY: Vasopressin V2 receptor (Homo sapiens, UniProt P30518)
- Sequence (P30518 whole entry): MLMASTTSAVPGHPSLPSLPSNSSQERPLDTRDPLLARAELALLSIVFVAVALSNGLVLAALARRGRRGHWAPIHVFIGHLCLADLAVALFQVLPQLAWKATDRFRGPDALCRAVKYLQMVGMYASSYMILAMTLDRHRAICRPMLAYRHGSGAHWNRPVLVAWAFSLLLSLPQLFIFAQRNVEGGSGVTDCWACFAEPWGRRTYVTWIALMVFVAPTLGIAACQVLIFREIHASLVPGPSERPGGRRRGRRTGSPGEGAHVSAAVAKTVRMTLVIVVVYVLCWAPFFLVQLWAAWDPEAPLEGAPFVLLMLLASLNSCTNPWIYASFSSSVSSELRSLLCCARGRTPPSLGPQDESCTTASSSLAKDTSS
pKi: −log10 of the molar value.
Decision: pKi compared against 8; not below it gives Y, below it gives N.

Recorded results for 5 compounds are shown here.
Clc1ccc2c(c1)CC1(Cc3nnc(N4CCC(c5cccc6c5OCO6)CC4)n3-2)OCCO1 :: Y
Clc1ccc2c(c1)CC1(Cc3nnc(N4CCN(c5cccc6c5OCO6)CC4)n3-2)OCCO1 :: Y
Clc1ccc2c(c1)CC1(Cc3nnc(N4CCN(c5ncccc5Cl)CC4)n3-2)OCCO1 :: Y
Clc1ccc2c(c1)CC1(CCOCC1)Cc1nnc(N3CCN(c4cccc5c4OCC5)CC3)n1-2 :: Y
NC(=O)C1Cc2cc(Cl)ccc2-n2c(nnc2N2CCN(c3cccc(Cl)c3)CC2)C1 (stereo unspecified) :: N

Enquiry: Check if pKi >= 8 (inclusive). Item: Clc1ccc2c(c1)CC1(Cc3nnc(C4CCN(c5cccc6c5COC6)CC4)n3-2)OCCO1
Return: N

Enquiry: Check if pKi >= 8 (inclusive). Item: Clc1ccc2c(c1)CC1(Cc3nnc(N4CCC(Oc5ccccn5)CC4)n3-2)OCCO1
Return: N

Enquiry: Check if pKi >= 8 (inclusive). Item: COc1ccccc1N1CCN(c2nnc3n2-c2ccc(Cl)cc2CC2(C3)OCCO2)CC1
Return: Y

Enquiry: Check if pKi >= 8 (inclusive). Item: Clc1ccc2c(c1)CC1(Cc3nnc(C4CCN(c5cccc6c5CCO6)CC4)n3-2)OCCO1
Return: N

Enquiry: Check if pKi >= 8 (inclusive). Item: Clc1ccc2c(c1)CC1(Cc3nnc(N4CCC(N5CCCCC5)CC4)n3-2)OCCO1
Return: N

Enquiry: Check if pKi >= 8 (inclusive). Item: Clc1ccc2c(c1)CC1(Cc3nnc(N4CCN(c5ccccn5)CC4)n3-2)OCCO1
Return: Y

Enquiry: Check if pKi >= 8 (inclusive). Item: Clc1ccc2c(c1)CC1(Cc3nnc(C4CCN(c5cccc6c5OCC6)CC4)n3-2)OCCO1
Return: Y

* * *

Form field: log10(microsomal CLint at 1 µM) (one value per entry).
- METHOD NOTES: Metabolic stability in human liver microsomes assessed as intrinsic clearance at 1 uM in presence of NADPH
- Type: ADME, Microsome
- MEASUREMENT SETUP: read-out: CLH
Friendly reminder: values = log10 of microsomal CLint at 1 µM, unit µL/min/mg.

Clc1ccc2c(c1)CC1(Cc3nnc(N4CCN(c5nccc6ccoc56)CC4)n3-2)OCCO1 :: 1.26
CC1(C)Cc2cccc(N3CCN(c4nnc5n4-c4ccc(Cl)cc4CC4(C5)OCCO4)CC3)c2O1 :: 2.03
Clc1ccc2c(c1)CC1(Cc3nnc(N4CCN(c5cccc6c5OCC6)CC4)n3-2)OCCO1 :: 1.20
NC(=O)C1Cc2cc(Cl)ccc2-n2c(nnc2N2CCC(Oc3ccccn3)CC2)C1 (centres undefined) :: -0.30
COC1(c2ccccc2)CCN(c2nnc3n2-c2ccc(Cl)cc2CC(C(N)=O)C3)CC1 (centres undefined) :: 0.48
Clc1ccc2c(c1)CC1(Cc3nnc(N4CCN(c5ccccn5)CC4)n3-2)OCCO1 :: 0.96
NC(=O)C1Cc2cc(Cl)ccc2-n2c(nnc2N2CCN(c3cccc(Cl)c3)CC2)C1 (centres undefined) :: 0.57
Clc1ccc2c(c1)CC1(Cc3nnc(N4CCC(Oc5ccccn5)CC4)n3-2)OCCO1 :: 1.04

Enquiry: Need log10(microsomal CLint at 1 µM), item Clc1ccc2c(c1)CC1(Cc3nnc(N4CCC(N5CCCCC5)CC4)n3-2)OCCO1
Return: -0.70

Enquiry: Need log10(microsomal CLint at 1 µM), item COC1(c2ccccc2)CCN(c2nnc3n2-c2ccc(Cl)cc2CC2(C3)OCCO2)CC1
Return: 0.84

Enquiry: Need log10(microsomal CLint at 1 µM), item Cc1cccc(N2CCN(c3nnc4n3-c3ccc(Cl)cc3CC3(C4)OCCO3)CC2)c1C
Return: 0.76

Enquiry: Need log10(microsomal CLint at 1 µM), item Clc1ccc2c(c1)CC1(Cc3nnc(N4CCN(c5cccc6c5CCO6)CC4)n3-2)OCCO1
Return: 1.06

Enquiry: Need log10(microsomal CLint at 1 µM), item OC1Cc2cc(Cl)ccc2-n2c(nnc2N2CCN(c3cccc4c3OCC4)CC2)C1 (centres undefined)
Return: 1.13

* * *

Form field: microsomal CLint at 1 µM (one value per entry).
- METHOD NOTES: Metabolic stability in human liver microsomes assessed as intrinsic clearance at 1 uM in presence of NADPH
- Assay type: ADME, Microsome
- MEASUREMENT SETUP: read-out: CLH
Your answer is read as µL/min/mg, so omit the unit and give the number.

Guide cases for microsomal CLint at 1 µM, answers given:
Clc1ccc2c(c1)CC1(Cc3nnc(N4CCC5(CC4)OCc4ccccc45)n3-2)OCCO1 :: 12
Clc1ccc2c(c1)CC1(Cc3nnc([C@H]4CC[C@H](Oc5ccccn5)CC4)n3-2)OCCO1 :: 13
NC(=O)C1Cc2cc(Cl)ccc2-n2c(nnc2N2CCC(N3CCCCC3)CC2)C1 (centres undefined) :: 0.2

Enquiry: Need microsomal CLint at 1 µM, item Clc1ccc2c(c1)CC1(Cc3nnc(N4CCN(c5ncccc5Cl)CC4)n3-2)OCCO1
Return: 10.6

* * *

Form field: log10(microsomal CLint at 1 µM) (one value per entry).
- METHOD NOTES: Metabolic stability in mouse liver microsomes assessed as intrinsic clearance at 1 uM in presence of NADPH
- Assay type: ADME, Microsome
- MEASUREMENT SETUP: read-out: CLH
Friendly reminder: values = log10 of microsomal CLint at 1 µM, unit µL/min/mg.

Guide cases for log10(microsomal CLint at 1 µM), answers given:
Clc1ccc2c(c1)CC1(Cc3nnc(N4CCN(c5cccc6c5COC6)CC4)n3-2)OCCO1 :: 1.48
Clc1ccc2c(c1)CC1(CCOCC1)Cc1nnc(N3CCN(c4cccc5c4OCC5)CC3)n1-2 :: 1.85
Clc1ccc2c(c1)CC1(Cc3nnc(N4CCC(N5CCCCC5)CC4)n3-2)OCCO1 :: 0.06
Clc1ccc2c(c1)CC1(Cc3nnc(N4CCN(c5ncccc5Cl)CC4)n3-2)OCCO1 :: 1.77
COC1(c2ccccc2)CCN(c2nnc3n2-c2ccc(Cl)cc2CC(C(N)=O)C3)CC1 (stereo not given) :: 1.14
CC1(C)Cc2cccc(N3CCN(c4nnc5n4-c4ccc(Cl)cc4CC4(C5)OCCO4)CC3)c2O1 :: 2.00
Cc1cccc(N2CCN(c3nnc4n3-c3ccc(Cl)cc3CC3(C4)OCCO3)CC2)c1C :: 1.37
OC1Cc2cc(Cl)ccc2-n2c(nnc2N2CCN(c3cccc4c3OCC4)CC2)C1 (stereo not given) :: 1.16
Clc1ccc2c(c1)CC1(Cc3nnc(N4CCN(c5cccc6c5CCO6)CC4)n3-2)OCCO1 :: 1.34
Clc1ccc2c(c1)CC1(Cc3nnc(N4CCN(c5cccc6c5OCO6)CC4)n3-2)OCCO1 :: 1.40

Enquiry: Need log10(microsomal CLint at 1 µM), item Clc1ccc2c(c1)CC1(Cc3nnc(N4CCC(Oc5ccccn5)CC4)n3-2)OCCO1
Return: 1.45

Enquiry: Need log10(microsomal CLint at 1 µM), item Clc1ccc2c(c1)CC1(Cc3nnc(N4CCN(c5nccc6ccsc56)CC4)n3-2)OCCO1
Return: 1.92

Enquiry: Need log10(microsomal CLint at 1 µM), item Clc1ccc2c(c1)CC1(Cc3nnc(N4CCN(c5ccccn5)CC4)n3-2)OCCO1
Return: 1.34

Enquiry: Need log10(microsomal CLint at 1 µM), item Cc1cccc(N2CCN(c3nnc4n3-c3ccc(Cl)cc3CC(C(N)=O)C4)CC2)c1C (stereo not given)
Return: 0.96

Enquiry: Need log10(microsomal CLint at 1 µM), item COC1(c2ccccc2)CCN(c2nnc3n2-c2ccc(Cl)cc2CC2(C3)OCCO2)CC1
Return: 1.71

* * *

These records show Ki for Vasopressin V2 receptor (Homo sapiens).
Your answer is read as nM, so omit the unit and give the number.

Guide cases for Ki, answers given:
Cc1ccccc1C(=O)NC1CCN(c2nnc3n2-c2ccc(Cl)cc2CC2(C3)OCCO2)CC1 :: 9
Cc1cccc(N2CCN(c3nnc4n3-c3ccc(Cl)cc3CC(C(N)=O)C4)CC2)c1C (centres undefined) :: 13
COC1(c2ccccc2)CCN(c2nnc3n2-c2ccc(Cl)cc2CC2(C3)OCCO2)CC1 :: 11

Please turn your attention to the following entry.
Enquiry: Need Ki, item OC1Cc2cc(Cl)ccc2-n2c(nnc2N2CCN(c3cccc4c3OCC4)CC2)C1 (centres undefined)
Return: 11

* * *

- METHOD NOTES: Metabolic stability in human liver microsomes assessed as intrinsic clearance at 1 uM in presence of NADPH
- Format: ADME, Microsome
- MEASUREMENT SETUP: read-out: CLH
microsomal CLint at 1 µM under 20 µL/min/mg gets class 1, anything at or over 20 µL/min/mg gets class 0.

Recorded results for 5 molecules are shown here.
Cc1ccccc1C(=O)Nc1ccc(C(=O)N2CCCC(O)c3cc(Cl)ccc32)c(C)c1 (stereo unspecified) :: class 1
Clc1ccc2c(c1)CC1(Cc3nnc(N4CCN(c5nccc6ccsc56)CC4)n3-2)OCCO1 :: class 0
Clc1ccc2c(c1)CC1(CCOCC1)Cc1nnc(N3CCN(c4cccc5c4OCC5)CC3)n1-2 :: class 0
Clc1ccc2c(c1)CC1(Cc3nnc(N4CCN(c5cccc6c5COC6)CC4)n3-2)OCCO1 :: class 1
Cc1cccc(N2CCN(c3nnc4n3-c3ccc(Cl)cc3CC(C(N)=O)C4)CC2)c1C (stereo unspecified) :: class 1

Switching to the query record.
Enquiry: Does the reported microsomal CLint at 1 µM of Clc1ccc2c(c1)CC1(Cc3nnc(N4CCN(c5cccc6c5OCO6)CC4)n3-2)OCCO1 stay below 20 µL/min/mg?
Return: class 1
